# Study System: T1, IL-1β (UniProt P01584 117-269)
# T1 construct: Antigen immobilised on the Biacore chip
# Assay Explanation: Biacore, periplasmic extract
Assay Metric: fold difference in affinity vs original (fold)
The reply should contain only the number, in fold.

Here's what some known entries look like.
| Binder | Value Reported |
| --- | --- |
| XPA23 light chain A51N (Fab, V domains shown) VH: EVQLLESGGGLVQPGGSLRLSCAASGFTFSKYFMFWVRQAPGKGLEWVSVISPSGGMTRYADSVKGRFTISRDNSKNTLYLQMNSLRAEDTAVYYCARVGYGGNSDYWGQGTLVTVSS VL: DIQMTQSPSSVSASVGDRLTIICRASQDINRWLAWYQQTPGNAPKLLIHSNTSLQSGVPSRFSGSGSGTDFTLTINSLQPEDFATYYCQQADSFPLTFGGGTKVEIK | 0.3 |
| XPA23 light chain D92S (Fab, V domains shown) VH: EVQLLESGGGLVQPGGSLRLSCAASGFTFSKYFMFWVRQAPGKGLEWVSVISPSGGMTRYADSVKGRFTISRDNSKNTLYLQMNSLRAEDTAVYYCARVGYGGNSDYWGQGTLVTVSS VL: DIQMTQSPSSVSASVGDRLTIICRASQDINRWLAWYQQTPGNAPKLLIHSATSLQSGVPSRFSGSGSGTDFTLTINSLQPEDFATYYCQQASSFPLTFGGGTKVEIK | 6.59 |

Continue with the binder presented below.
Give reported fold difference in affinity vs original value for XPA23 light chain A51Y (Fab, V domains shown) VH: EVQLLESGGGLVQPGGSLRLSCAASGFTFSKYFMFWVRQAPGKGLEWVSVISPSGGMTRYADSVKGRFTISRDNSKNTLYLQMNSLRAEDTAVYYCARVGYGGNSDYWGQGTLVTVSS VL: DIQMTQSPSSVSASVGDRLTIICRASQDINRWLAWYQQTPGNAPKLLIHSYTSLQSGVPSRFSGSGSGTDFTLTINSLQPEDFATYYCQQADSFPLTFGGGTKVEIK 0.45
